Tested on: E. coli ECM 1694
protocol: Broth dilution MIC, E. coli ECM 1694
Assay type: cell-based
experimentalContext: Escherichia coli, ECM1694, Table 2; broth dilution MIC in ug/ml; read-out: MIC E. coli ECM 1693
readout: MIC (µg/mL)
Answers are plain numbers, in µg/mL.

molecule | measurementUnits | MIC
c1cc(-c2cc3ccc(C4=NCCN4)cc3[nH]2)ccc1Nc1ccc(N2CCOCC2)cc1 [SKI-11] | µg/mL | 1
c1cc(C2=NCCN2)ccc1Nc1ccc(-c2cc3ccc(C4=NCCN4)cc3[nH]2)cc1 [SKI-1] | µg/mL | 0.25

Please examine the following record next.
Exam item: Quick one: MIC for Nc1ccc(-c2ccc3cc(-c4ccc(Nc5ccc(C6=NCCN6)cc5)cc4)[nH]c3c2)cc1 [SKI-20] ?
Marked response: 64
